Just for reference, patent US6511997B1 is where these values come from.

Reported melting point values are given for each entry in this list.

(Q) Given Cn1nc(-c2ccc(F)cc2)c(-c2ccncc2)c1NC(=O)Cc1ccsc1 [Example 80] , state its recorded melting point.
(A) 151.9 to 154.6 °C

(Q) Given CCn1nc(-c2ccc(F)cc2)c(-c2ccncc2)c1NC(=O)Cc1ccccc1 [Example 97] , state its recorded melting point.
(A) 219 to 221.2 °C

(Q) Given CC(C)CC(=O)Nc1n[nH]c(-c2ccc(F)cc2)c1-c1ccncc1 [Example 19] , state its recorded melting point.
(A) 291.1 to 294 °C

(Q) Given Cn1nc(-c2ccc(F)cc2)c(-c2ccncc2)c1NC(=O)Cc1ccc(F)cc1 [Example 62] , state its recorded melting point.
(A) 217.3 to 219.7 °C

(Q) Given COc1ccccc1CC(=O)Nc1c(-c2ccncc2)c(-c2ccc(F)cc2)nn1C [Example 69] , state its recorded melting point.
(A) 206.8 to 209.2 °C

----------
Endpoint: melting point

Molecule	melting point
Cn1nc(-c2ccc(F)c(Cl)c2)c(-c2ccncc2)c1NC(=O)Cc1ccc(F)cc1Cl [Example 112]	162.8 to 163.9 °C
Cn1nc(-c2ccc(F)cc2)c(-c2ccncc2)c1NC(=O)Cc1c(F)cccc1Cl [Example 36]	216.9 to 224.6 °C
Cc1ccc(C)c(CC(=O)Nc2c(-c3ccncc3)c(-c3ccc(F)cc3)nn2C)c1 [Example 51]	179.9 to 185.1 °C
O=S(=O)(Nc1n[nH]c(-c2ccc(F)cc2)c1-c1ccncc1)c1ccccc1 [Example 139]	181 to 183.3 °C
Cn1nc(-c2ccc(F)cc2)c(-c2ccncc2)c1NC(=O)Cc1ccc(F)cc1Cl [Example 39]	229 to 232.7 °C

(Q) Given COc1ccccc1CC(=O)Nc1c(-c2ccncc2)c(-c2ccc(F)cc2)nn1CCOCc1ccccc1 [Example 103] , state its recorded melting point.
(A) 142.9 to 144.2 °C

(Q) Given CC(C)[C@H](NC(=O)OCc1ccccc1)C(=O)Nc1n[nH]c(-c2ccc(F)cc2)c1-c1ccncc1 [Example 85] , state its recorded melting point.
(A) 231.1 °C
